system: Mus musculus; assay: Phenyl-p-benzoquinone-induced abdominal constriction after subcutaneous administration in mouse (in vivo); format: functional, Abdomen; conditions: Mus musculus, Abdomen, sc; read-out: ED50
Let's look at some compounds and their measured ED50.
measurementLabel: ED50 (µmol/kg)

{"columns": ["compound", "testValue"],
 "data": [
  ["O=C(Cc1ccc(Cl)c(Cl)c1)N1CCc2ccccc2C1CN1CCCCC1 (racemic)", 0.101],
  ["O=C(Cc1ccc(Cl)c(Cl)c1)N1CCc2ccccc2C1CN1CCCCCC1 (configuration not stated)", 0.083],
  ["O=C(Cc1ccc(C(F)(F)F)cc1)N1CCc2sccc2C1CN1CCCCC1 (configuration not stated)", 0.024],
  ["O=C(Cc1ccc(Cl)c(Cl)c1)N1CCc2ccccc2C1CN1CCCC1 (configuration not stated)", 0.025],
  ["O=C(Cc1ccc(Cl)c(Cl)c1)N1CCc2sccc2C1CN1CCCCC1 (configuration not stated)", 0.024],
  ["O=C(Cc1ccc(C(F)(F)F)cc1)N1CCCC[C@H]1CN1CCCC1", 0.099],
  ["O=C(Cc1ccc(Cl)c(Cl)c1)N1CCCC[C@H]1CN1CCCC1", 0.056]
]}

----------
target: Mu-type opioid receptor (Cavia porcellus)
Sequence (P97266 whole entry): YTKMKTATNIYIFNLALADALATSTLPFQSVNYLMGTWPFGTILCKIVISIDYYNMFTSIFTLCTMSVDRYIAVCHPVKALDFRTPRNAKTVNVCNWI
pKi: −log10 of the molar value.
We use 7 as the dividing line for pKi: on or above the line is Fulfilled, below is Not fulfilled.

{"columns": ["molecule", "answerLabel"],
 "data": [
  ["O=C(Cc1ccc(Cl)c(Cl)c1)N1CCc2c([nH]c3ccccc23)C1CN1CCCC1 (stereo not given)", "Not fulfilled"],
  ["O=C(Cc1ccc(Cl)c(Cl)c1)N1CCc2ccsc2C1CN1CCCC1 (stereo not given)", "Fulfilled"],
  ["O=C(Cc1ccc(C(F)(F)F)cc1)N1CCc2ccccc2C1CN1CCCCC1 (single isomer, unassigned; (-))", "Not fulfilled"],
  ["O=C(Cc1ccc(C(F)(F)F)cc1)N1CCc2sccc2C1CN1CCCCC1 (stereo not given)", "Not fulfilled"],
  ["O=C(Cc1ccc(C(F)(F)F)cc1)N1CCc2ccccc2[C@H]1CN1CCCC1 (stereo in doubt; 30)", "Fulfilled"],
  ["O=C(Cc1ccc(Cl)c(Cl)c1)N1CCc2sccc2C1CN1CCCC1 (stereo not given)", "Fulfilled"],
  ["O=C(Cc1ccc(C(F)(F)F)cc1)N1CCCC[C@H]1CN1CCCC1", "Not fulfilled"],
  ["CCO.CN(C)CC1c2ccccc2CCN1C(=O)Cc1ccc(Cl)c(Cl)c1.O=C(O)C(O)C(O)C(=O)O (single isomer, unassigned; (-))", "Not fulfilled"],
  ["O=C(Cc1ccc(Cl)c(Cl)c1)N1CCc2[nH]c3ccccc3c2C1CN1CCCC1 (stereo not given)", "Not fulfilled"],
  ["O=C(Cc1ccc(Cl)c(Cl)c1)N1CCc2sccc2C1CN1CCCCC1 (stereo not given)", "Not fulfilled"]
]}

----------
Let's look at some compounds and their measured ED50.
tested on: Mus musculus; assay: In vivo antinociceptive activity using mouse tail flick test, subcutaneous administration; format: functional; settings: Mus musculus, Tail, sc; read-out: ED50

{"columns": ["compound", "ltGtEq", "ED50, µmol/kg"],
 "data": [
  ["O=C(Cc1ccc(Br)cc1)N1CCc2ccccc2C1CN1CCCC1 (racemic)", "=", 0.07],
  ["O=C(Cc1ccccc1[N+](=O)[O-])N1CCc2ccccc2C1CN1CCCC1 (racemic)", ">", 21],
  ["O=C(Cc1cccc([N+](=O)[O-])c1)N1CCc2ccccc2C1CN1CCCC1 (racemic)", "=", 0.105],
  ["O=C(Cc1ccc(C(F)(F)F)cc1)N1CCc2ccccc2C1CN1CCCC1 (racemic)", "=", 0.074],
  ["O=C(Cc1ccc(Cl)c(Cl)c1)N1CCc2sccc2C1CN1CCCCC1 (stereo not given)", "=", 0.096],
  ["O=C(Cc1ccc(C(F)(F)F)cc1)N1CCc2ccccc2C1CN1CCCCC1 (single isomer, unassigned; (-))", "=", 0.168],
  ["O=C(Cc1ccc(Cl)c(Cl)c1)N1CCc2ccccc2C1CN1CCCCC1 (racemic)", "=", 0.359],
  ["CN(CC1CC1)CC1c2ccccc2CCN1C(=O)Cc1ccc(Cl)c(Cl)c1 (racemic)", "=", 3.39],
  ["O=C(Cc1ccc(Cl)c(Cl)c1)N1CCc2sccc2C1CN1CCCC1 (stereo not given)", "=", 0.018],
  ["CCN(CC)CC1c2ccccc2CCN1C(=O)Cc1ccc(Cl)c(Cl)c1 (racemic)", "=", 0.264],
  ["O=C(Cc1ccc(Cl)c(Cl)c1)N1c2ccccc2CCC1CN1CCCC1 (stereo not given)", ">", 20],
  ["O=C(Cc1ccc(Cl)c(Cl)c1)N1CCc2ccccc2C1CN1CCCCCCC1 (racemic)", ">", 22],
  ["CCCN(CCC)CC1c2ccccc2CCN1C(=O)Cc1ccc(Cl)c(Cl)c1 (racemic)", ">", 23],
  ["O=C(Cc1ccc([N+](=O)[O-])cc1)N1CCc2ccccc2C1CN1CCCC1 (racemic)", "=", 0.038],
  ["O=C(Cc1ccc(Cl)c(Cl)c1)N1CCc2c([nH]c3ccccc23)C1CN1CCCC1 (stereo not given)", ">", 20],
  ["O=C(Cc1ccc(Cl)c(Cl)c1)N1CCc2[nH]c3ccccc3c2C1CN1CCCC1 (stereo not given)", ">", 20],
  ["C=CCN(C)CC1c2ccccc2CCN1C(=O)Cc1ccc(Cl)c(Cl)c1 (racemic)", "=", 0.521],
  ["CN(C)CC1c2ccccc2CCN1C(=O)Cc1ccc(Cl)c(Cl)c1.Cl (racemic)", "=", 0.099],
  ["O=C(Cc1ccc(Cl)c(Cl)c1)N1CCc2ccccc2C1CN1CCCCCC1 (stereo not given)", "=", 0.267],
  ["O=C(Cc1ccc(Cl)c(Cl)c1)N1Cc2ccccc2CC1CN1CCCC1 (stereo not given)", "=", 8.23]
]}
